- assayed system: full length recombinant Pim-3 protein (Homo sapiens, UniProt Q86V86)
- Construct: by full length recombinant Pim-1, Pim-2, or Pim-3 protein
- test method notes: Pim-3 enzyme assay (HTRF, phosphorylation of biotinylated-BAD (S112) peptide)
- condition label: read-out: Pim3 IC50
pIC50: −log10 of the molar value.
experimental readout: pIC50

Fc1cccc(F)c1-c1ccc2[nH]cc(-c3cncc(N[C@@H]4CCNC4)n3)c2c1 [Example 208] :: 8.40

[I] c1cc2[nH]nc(-c3cncc(O[C@@H]4CCCNC4)n3)c2cc1-c1ccc2nncn2c1 [Example 145]
[II] CCCCNC(=O)c1ccc(F)c(-c2ccc3[nH]nc(-c4cncc(N5CCC(N)CC5)n4)c3c2)c1 [Example 38]
Inquiry: Would you let me know which has the greater pIC50 value, I or II ? Mark your answer with the label of the selected entry.
Reply text: II

* * *

- assayed system: full length recombinant Pim-2 protein (Homo sapiens)
- Construct: by full length recombinant Pim-1, Pim-2, or Pim-3 protein; hexahistidine tag followed by a thrombin cleavage site (N); made in house; host or cells: Sf9 (baculovirus) or E. coli (pET28)
- test method notes: Pim-2 enzyme assay (HTRF, phosphorylation of biotinylated-BAD (S112) peptide)
- Format: biochemical
- condition label: read-out: Pim2_IC50
pIC50: −log10 of the molar value.
experimental readout: pIC50

c1cc2[nH]nc(-c3cncc(O[C@@H]4CCNCC45CC5)n3)c2cc1-c1cncc(C2CC2)n1 :: 8.30
OCc1cccc(-c2ccc3[nH]cc(-c4cncc(O[C@@H]5CCCNC5)n4)c3c2)c1 :: 7.62
O=c1cc(-c2n[nH]c3ccc(-c4c(F)cccc4F)cc23)nc(OC2CNCCC2F)[nH]1 (stereo not drawn) :: 8.00
C[C@H]1COCCN1c1ccc2[nH]nc(-c3cncc(O[C@H]4CNCCC45CC5)n3)c2c1 :: 7.41
COc1cncc(-c2n[nH]c3ccc(-c4nccc(C(C)C)n4)cc23)n1 :: 6.64
O=c1cc(-c2n[nH]c3ccc(-c4c(F)cccc4F)cc23)nc[nH]1 :: 6.25
CC(C)Nc1cncc(-c2n[nH]c3ccc(-c4cncc(C5CC5)n4)cc23)n1 :: 7.43
CN(C)c1nc(-c2c[nH]c3ccc(-c4c(F)cccc4F)cc23)cc(=O)[nH]1 :: 6.96
Fc1cccc(F)c1-c1ccc2[nH]nc(-c3cncc(OC4CNCC5CC54)n3)c2c1 (stereo not drawn) [Example 444] :: 7.55
NS(=O)(=O)c1ccc(-c2ccc3[nH]nc(-c4cncc(O[C@H]5CNCCC56CC6)n4)c3c2)c(F)c1 :: 9.00

[I] CC(C)Nc1nc(-c2c[nH]c3ccc(-c4c(F)cccc4F)cc23)cc(=O)[nH]1
[II] N#CCc1ccc2[nH]nc(-c3cncc(O[C@H]4CNCCC45CC5)n3)c2c1
Inquiry: Would you let me know which has the greater pIC50 value, I or II ? Mark your answer with the label of the selected entry.
Reply text: I

[A] Nc1ncc(-c2ccc3[nH]nc(-c4cncc(O[C@H]5CNCCC56CC6)n4)c3c2)cn1
[B] COC(=O)c1ccc2[nH]cc(-c3ccnc(N[C@@H]4CCCNC4)n3)c2c1
Inquiry: Looking at recorded values for pIC50, does A or B come in lower? Mark your answer with the label of the selected entry.
Reply text: B
(B: 6.63, A: 7.77)

[A] NC1CCN(c2cncc(-c3c[nH]c4ccc(-c5cncc(NC6CC6)n5)cc34)n2)CC1
[B] COC(=O)c1ccc2[nH]nc(-c3nccc(N[C@@H]4CCCNC4)n3)c2c1
Inquiry: Would you let me know which has the greater pIC50 value, A or B ? Mark your answer with the label of the selected entry.
Reply text: A

* * *

- assayed system: full length recombinant Pim-3 protein (Homo sapiens, UniProt Q86V86)
- Construct: by full length recombinant Pim-1, Pim-2, or Pim-3 protein
- test method notes: Pim-3 enzyme assay (HTRF, phosphorylation of biotinylated-BAD (S112) peptide)
- condition label: read-out: Pim3 IC50
experimental readout: IC50 (nM)

NC1CCN(c2cncc(-c3n[nH]c4ccc(-c5cncc(F)c5)cc34)n2)CC1 :: 1

[A] Nc1ccc(OC(F)(F)F)c(-c2ccc3[nH]nc(-c4cncc(N5CCC(N)CC5)n4)c3c2)c1
[B] NC1CCN(c2cncc(-c3n[nH]c4ccc(-c5cc(C(=O)N6CCCCC6)ccc5F)cc34)n2)CC1
Inquiry: Looking at recorded values for IC50, does A or B come in lower? Mark your answer with the label of the selected entry.
Reply text: B
(B: 26 nM, A: 67 nM)

* * *

- assayed system: full length recombinant Pim-2 protein (Homo sapiens, UniProt Q9P1W9)
- Construct: by full length recombinant Pim-1, Pim-2, or Pim-3 protein; hexahistidine tag followed by a thrombin cleavage site (N); made in house; host or cells: Sf9 (baculovirus) or E. coli (pET28)
- test method notes: Pim-2 enzyme assay (HTRF, phosphorylation of biotinylated-BAD (S112) peptide)
- Type: biochemical
- condition label: read-out: Pim2_IC50
experimental readout: IC50 (nM)

Previously resolved entries follow.
c1cc2[nH]cc(-c3cncc(O[C@@H]4CCCNC4)n3)c2cc1-c1cncc(OC2CCCC2)n1 :: 347
c1cc2[nH]nc(-c3cncc(O[C@H]4CNCCC45CC5)n3)c2cc1C1CCC1 :: 7
c1cc2[nH]nc(-c3cncc(O[C@H]4CNCCC45CC5)n3)c2cc1-c1cncc(C2CC2)n1 :: 99
NC1CCN(c2cncc(-c3n[nH]c4ccc(-c5cncc(C6CC6)n5)cc34)n2)CC1 :: 2
c1cc2[nH]nc(-c3cncc(O[C@H]4CNCCC45CC5)n3)c2cc1C1CCOCC1 :: 15
c1cc2[nH]nc(-c3cncc(NC4CCNCC4)n3)c2cc1-c1cncc(C2CC2)n1 :: 1
Brc1ccc2[nH]nc(-c3cncc(O[C@H]4CNCCC45CC5)n3)c2c1 :: 82
CC(c1ccc2[nH]nc(-c3cncc(O[C@H]4CNCCC45CC5)n3)c2c1)C(F)(F)F (stereo partly drawn) [Example 258] :: 6

[P] N#Cc1ncccc1-c1ccc2[nH]cc(-c3cncc(O[C@@H]4CCCNC4)n3)c2c1
[Q] COC(=O)c1ccc2[nH]cc(-c3nccc(N[C@@H]4CCCNC4)n3)c2c1
[R] CCNC(=O)c1ccc(C)c(-c2ccc3[nH]cc(-c4cncc(O[C@@H]5CCCNC5)n4)c3c2)c1
Inquiry: Hey, quick one: sort these by IC50, low to high? Put the labels in the requested order and write them down.
Reply text: P, Q, R
(P: 40 nM, Q: 182 nM, R: 515 nM)

[1] COC(=O)c1ccc2[nH]nc(-c3ccnc(N[C@@H]4CCCNC4)n3)c2c1
[2] CC(C)Oc1cncc(-c2ccc3[nH]cc(-c4nnc(NC5CCNCC5)o4)c3c2)n1
[3] COC(=O)c1ccc2[nH]nc(-c3cncc(N4CCC(N)CC4)n3)c2c1
[4] CN(C)c1nc(-c2n[nH]c3ccc(-c4c(F)cccc4F)cc23)cc(=O)[nH]1
[5] COc1ccc(-c2ccc3[nH]cc(-c4cncc(O[C@@H]5CCCNC5)n4)c3c2)cc1
Inquiry: Ranking field: IC50; order: falling. Put the labels in the requested order and write them down.
Reply text: 2, 4, 1, 5, 3

[1] c1cc(OCC2CC2)ncc1-c1ccc2[nH]cc(-c3cncc(O[C@@H]4CCCNC4)n3)c2c1
[2] Cc1cccc(-c2ccc3[nH]cc(-c4cncc(O[C@@H]5CCCNC5)n4)c3c2)c1C
Inquiry: Looking at recorded values for IC50, does 1 or 2 come in lower? Mark your answer with the label of the selected entry.
Reply text: 1
(1: 67 nM, 2: 268 nM)

* * *

- assayed system: Pim-2 stably transfected into the U2OS human osteogenic sarcoma line (Homo sapiens)
- Construct: expressed in transfected cells; host or cells: U2OS human osteogenic sarcoma line
- Sequence (Q9P1W9 whole entry): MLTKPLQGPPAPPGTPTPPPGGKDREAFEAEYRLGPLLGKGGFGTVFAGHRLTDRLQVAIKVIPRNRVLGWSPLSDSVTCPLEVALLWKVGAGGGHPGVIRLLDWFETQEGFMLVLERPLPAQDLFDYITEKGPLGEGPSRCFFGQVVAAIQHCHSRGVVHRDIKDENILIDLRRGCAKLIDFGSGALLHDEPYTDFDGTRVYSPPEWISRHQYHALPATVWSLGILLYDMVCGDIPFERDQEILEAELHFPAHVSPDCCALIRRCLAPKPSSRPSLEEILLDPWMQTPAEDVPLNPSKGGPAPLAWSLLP
- test method notes: Pim cell assay, phospho-BAD normalized against total BAD, U2OS stably transfected with Pim-2; further: high dose 31.6 µM
- Format: cell-based
- condition label: U2OS cells stably transfected with Pim-2, phospho-BAD; high dose […]; read-out: Pim2_Cell_IC50
experimental readout: IC50 (µM)

CCCNC(=O)c1ccc(F)c(-c2ccc3[nH]nc(-c4cncc(N5CCC(N)CC5)n4)c3c2)c1 [Example 39] :: 6.63
NC1CCN(c2cncc(-c3n[nH]c4ccc(-c5cc(C(=O)NCc6ccccc6)ccc5F)cc34)n2)CC1 [Example 36] :: 6.61

[A] NC1CCN(c2cncc(-c3c[nH]c4ccc(-c5c(F)cccc5F)cc34)n2)CC1 [Example 22]
[B] N#Cc1ccccc1-c1ccc2[nH]nc(-c3cncc(N4CCC(N)CC4)n3)c2c1 [Example 60]
[C] NC1CCN(c2cncc(-c3n[nH]c4ccc(-c5ccccc5Cl)cc34)n2)CC1 [Example 83]
[D] C[C@H]1CCNC[C@H]1Oc1cncc(-c2n[nH]c3ccc(-c4c(F)cccc4F)cc23)n1 [Example 199]
Inquiry: Hey, quick one: sort these by IC50, low to high? Put the labels in the requested order and write them down.
Reply text: D, A, B, C
